# system: Porcine DPP-IV (Sus scrofa, UniProt P22411)
# Construct: purchased Sigma-Aldrich Germany
# Sequence (P22411 whole entry): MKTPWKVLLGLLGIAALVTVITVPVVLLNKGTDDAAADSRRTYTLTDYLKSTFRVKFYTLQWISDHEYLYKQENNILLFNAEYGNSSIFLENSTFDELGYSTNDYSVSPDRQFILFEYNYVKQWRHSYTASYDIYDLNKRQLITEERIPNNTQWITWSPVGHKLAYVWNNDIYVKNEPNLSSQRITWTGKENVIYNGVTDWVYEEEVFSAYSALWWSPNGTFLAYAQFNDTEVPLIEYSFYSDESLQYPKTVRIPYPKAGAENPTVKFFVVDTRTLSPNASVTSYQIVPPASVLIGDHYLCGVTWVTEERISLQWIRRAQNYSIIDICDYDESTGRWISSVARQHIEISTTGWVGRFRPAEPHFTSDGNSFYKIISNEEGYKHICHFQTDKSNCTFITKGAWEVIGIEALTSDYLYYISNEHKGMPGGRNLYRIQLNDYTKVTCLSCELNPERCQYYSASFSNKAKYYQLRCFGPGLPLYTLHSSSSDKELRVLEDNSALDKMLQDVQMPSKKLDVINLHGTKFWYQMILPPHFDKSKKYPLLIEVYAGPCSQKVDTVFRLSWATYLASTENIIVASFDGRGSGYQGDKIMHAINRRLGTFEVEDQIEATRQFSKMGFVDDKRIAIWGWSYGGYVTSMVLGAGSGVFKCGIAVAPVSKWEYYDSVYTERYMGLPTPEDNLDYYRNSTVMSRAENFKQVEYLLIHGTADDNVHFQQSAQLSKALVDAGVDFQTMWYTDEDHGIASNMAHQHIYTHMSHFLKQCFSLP
# test_method_notes: Assay of DPP-IV enzyme inhibitory activity (spectrophotometric, Gly-Pro-pNA cleavage)
# Format: biochemical
# run_parameters: Porcine DPP-IV, Gly-Pro-pNA substrate, 30° C.; mean ± SD of three experiments except compound Nos. 133 & 139; read-out: IC50 (μM) Mean ± SD, inhibitory activity on DPP-IV enzyme activity
reported_metric: IC50 (µM)

N#CC1CSCN1C(=O)CN(N)C1CCN(C(=O)N2CCOCC2)CC1.O=C(O)C(F)(F)F (centres unmarked) [Compound No. 85]: 0.79

1 = CN(CC(=O)N1CSCC1C#N)NC1CCN(Cc2ccc(C#N)cc2)CC1 (centres unmarked) [Compound No. 58]
2 = N#CC1CSCN1C(=O)CNN (centres unmarked) [Compound No. 15]
3 = N#CC1CSCN1C(=O)CN(N)C1CCN(CC(=O)NC2CC2)CC1 (centres unmarked) [Compound No. 108]
4 = CCC(C)N(N)CC(=O)N1CSCC1C#N (centres unmarked) [Compound No. 23]
Query: Arrange the 4 entries by IC50 so the values rise. Submit the labels in the order that the ranking request calls for.
Reply: 3, 4, 1, 2
(3: 0.236 µM, 4: 2.94 µM, 1: 17.1 µM, 2: 41.9 µM)
